quantity_name: melting point

[[record]]
smiles_data = "Cl.Cl.c1cn(CCCCCCn2ccnc2)cn1"
endpoint_result = "220 to 221 °C"

[[record]]
smiles_data = "C[n+]1ccn(CCCCCCCCCCCCCCCCCCCCn2cc[n+](C)c2)c1"
endpoint_result = "78 to 80 °C"

[[record]]
smiles_data = "c1cn(CCCCCCCCCCCCCCCCCCCCn2ccnc2)cn1"
endpoint_result = "58 to 59 °C"

[[record]]
smiles_data = "Cl.Cl.c1cn(CCCCCCCCCCCCCCCn2ccnc2)cn1"
endpoint_result = "98 to 99 °C"

[[record]]
smiles_data = "Cl.Cl.c1cn(CCCCCCCCCCCCCCn2ccnc2)cn1"
endpoint_result = "142 to 143 °C"

[[record]]
smiles_data = "Cl.Cl.c1cn(CCCCCCCCn2ccnc2)cn1"
endpoint_result = "176 to 177 °C"

[[record]]
smiles_data = "Cl.Cl.c1cn(CCCCCCCCCCn2ccnc2)cn1"
endpoint_result = "143 to 144 °C"

[[record]]
smiles_data = "C[n+]1ccn(CCCCCCn2cc[n+](C)c2)c1"
endpoint_result = "156 to 157 °C"

